Test system: Bentgrass
Experiment: Turf grass selectivity, greenhouse pot test
Type: in vivo, Agrostris palustris
Settings: 200 g ai/ha, 2 weeks
From the text: Turf mats of Zoysia grass, bentgrass, Kentucky bluegrass, or perennial rye grass known as cool season turfgrass or western grass were purchased and cut into a piece having 10 cm×20 cm size. Then, each piece was transplanted in a rectangular plastic pot (surface area of 300 cm^2) in which sandy loam and mixed top soil (Boo-Nong Top Soil No. 3, for horticultural use) are filled in 1:1 ratio. […]
measured_metric: phytotoxicity (visual assessment 0-10)

1. Cc1cc(C)nc(NC(=O)NS(=O)(=O)c2ccccc2C(O)C(C)F)n1 (stereo not shown)    2
2. COc1nc(C)nc(NC(=O)NS(=O)(=O)c2cscc2C2(CF)OCCO2)n1    10
3. COc1cc(OC)nc(NC(=O)NS(=O)(=O)c2ncccc2C(F)(F)F)n1 [Control chemical No. 2, Flazasulfuron, reference compound]    10
4. CCOC(=O)c1cnn(C)c1S(=O)(=O)NC(=O)Nc1nc(OC)cc(OC)n1 [Control chemical No. 1, Pyrazosulfuron ethyl, reference compound]    2

###

Listed molecules paired with reported efficacy (0-100 scale)
System: Dandelion
Assay: Weed spectrum, greenhouse pot test
Assay type: in vivo
Conditions: Post-emergence, 50 g ai/ha, two weeks after application
measured_metric: efficacy (0-100 scale)

1) COc1cc(OC)nc(NC(=O)NS(=O)(=O)c2ncccc2C(F)(F)F)n1 [Control chemical No. 2, Flazasulfuron, reference compound]    40
2) Cc1cc(C)nc(NC(=O)NS(=O)(=O)c2ccccc2C(O)C(C)F)n1 (stereo not shown)    100
3) COc1nc(C)nc(NC(=O)NS(=O)(=O)c2cscc2C2(CF)OCCO2)n1    100
4) CCOC(=O)c1cnn(C)c1S(=O)(=O)NC(=O)Nc1nc(OC)cc(OC)n1 [Control chemical No. 1, Pyrazosulfuron ethyl, reference compound]    100

###

Tested on: Bentgrass
Assay: Turf grass selectivity, greenhouse pot test
Assay type: in vivo, Agrostris palustris
Conditions: 3 g ai/ha, 2 weeks
measured_metric: phytotoxicity (visual assessment 0-10)

1. COc1cc(OC)nc(NC(=O)NS(=O)(=O)c2ncccc2C(F)(F)F)n1 [Control chemical No. 2, Flazasulfuron, reference compound]    10
2. CCOC(=O)c1cnn(C)c1S(=O)(=O)NC(=O)Nc1nc(OC)cc(OC)n1 [Control chemical No. 1, Pyrazosulfuron ethyl, reference compound]    0
3. Cc1cc(C)nc(NC(=O)NS(=O)(=O)c2ccccc2C(O)C(C)F)n1 (stereo not shown)    0
4. COc1nc(C)nc(NC(=O)NS(=O)(=O)c2cscc2C2(CF)OCCO2)n1    3

###

System: Kentucky bluegrass
Experiment: Turf grass selectivity, greenhouse pot test
Assay type: in vivo, Poa pratensis
Settings: 200 g ai/ha, 4 weeks
Listed compounds paired with reported phytotoxicity (visual assessment 0-10)
measured_metric: phytotoxicity (visual assessment 0-10)

1. COc1nc(C)nc(NC(=O)NS(=O)(=O)c2cscc2C2(CF)OCCO2)n1 [Example 2]    10
2. CCOC(=O)c1cnn(C)c1S(=O)(=O)NC(=O)Nc1nc(OC)cc(OC)n1 [Control chemical No. 1, Pyrazosulfuron ethyl, reference compound]    0
3. Cc1cc(C)nc(NC(=O)NS(=O)(=O)c2ccccc2C(O)C(C)F)n1 (stereo not shown) [Example 1]    0
4. COc1cc(OC)nc(NC(=O)NS(=O)(=O)c2ncccc2C(F)(F)F)n1 [Control chemical No. 2, Flazasulfuron, reference compound]    10
